molecular target: Human BCMA (human) (UniProt Q02223); experiment: SPR, IgG immobilised, huBCMA analyte, 37 C
measurementName: Kd (nM)
Report as a plain number; the unit nM is understood.

Please review the following examples before continuing.
L3.PY/L1.FF/H3.AQ (antibody, V domains shown, IgG) VH: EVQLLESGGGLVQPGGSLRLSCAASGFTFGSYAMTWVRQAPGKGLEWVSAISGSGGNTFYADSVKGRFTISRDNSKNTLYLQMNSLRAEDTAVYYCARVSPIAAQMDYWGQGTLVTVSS VL: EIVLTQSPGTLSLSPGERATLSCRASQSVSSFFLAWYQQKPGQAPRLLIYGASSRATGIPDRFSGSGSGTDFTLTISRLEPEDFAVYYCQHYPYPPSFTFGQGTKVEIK    0.46
L3.PY/L3.KF/H3.YA (antibody, V domains shown, IgG) VH: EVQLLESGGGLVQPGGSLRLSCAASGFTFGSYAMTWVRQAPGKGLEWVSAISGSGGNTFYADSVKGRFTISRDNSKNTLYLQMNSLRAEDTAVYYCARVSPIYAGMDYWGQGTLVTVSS VL: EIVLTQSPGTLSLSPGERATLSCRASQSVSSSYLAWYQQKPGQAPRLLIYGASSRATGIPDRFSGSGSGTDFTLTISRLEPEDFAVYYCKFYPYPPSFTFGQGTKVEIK    0.47
L3.PY/L3.KF/H2.LT (antibody, V domains shown, IgG) VH: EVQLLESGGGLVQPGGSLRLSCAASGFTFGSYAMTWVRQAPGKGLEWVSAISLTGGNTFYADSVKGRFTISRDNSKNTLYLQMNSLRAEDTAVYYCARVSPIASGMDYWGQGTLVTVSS VL: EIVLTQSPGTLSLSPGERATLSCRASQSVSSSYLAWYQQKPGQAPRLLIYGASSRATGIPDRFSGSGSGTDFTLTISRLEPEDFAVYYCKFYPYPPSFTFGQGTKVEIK    0.69
L3.PY/L1.FF/H2.YQ (antibody, V domains shown, IgG) VH: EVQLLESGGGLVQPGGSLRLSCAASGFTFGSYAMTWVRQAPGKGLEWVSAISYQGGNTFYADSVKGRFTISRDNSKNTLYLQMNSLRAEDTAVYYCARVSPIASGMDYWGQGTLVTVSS VL: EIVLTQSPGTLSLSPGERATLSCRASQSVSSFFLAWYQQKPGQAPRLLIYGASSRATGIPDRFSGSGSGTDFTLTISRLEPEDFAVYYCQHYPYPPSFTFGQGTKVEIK    0.46
L3.PY/L3.KF/H3.TAQ (antibody, V domains shown, IgG) VH: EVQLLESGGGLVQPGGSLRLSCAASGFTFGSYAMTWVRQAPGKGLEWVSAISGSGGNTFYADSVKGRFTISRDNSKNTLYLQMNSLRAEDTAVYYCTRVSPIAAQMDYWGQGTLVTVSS VL: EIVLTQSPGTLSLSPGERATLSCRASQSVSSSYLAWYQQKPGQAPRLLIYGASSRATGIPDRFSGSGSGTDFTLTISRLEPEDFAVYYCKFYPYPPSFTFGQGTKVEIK    0.58

Asked: Recorded Kd for L3.PY/L1.PH/H2.HA (antibody, V domains shown, IgG) VH: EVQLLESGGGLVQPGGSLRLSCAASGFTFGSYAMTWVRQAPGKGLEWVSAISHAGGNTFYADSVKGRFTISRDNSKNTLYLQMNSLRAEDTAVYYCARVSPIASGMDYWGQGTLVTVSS VL: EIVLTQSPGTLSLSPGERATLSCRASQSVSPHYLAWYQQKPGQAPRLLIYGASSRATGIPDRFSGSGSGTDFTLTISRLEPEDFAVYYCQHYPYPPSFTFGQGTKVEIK , please?
Given back: 0.49

Asked: I am curious: what Kd value has been reported for L3.PY/L3.KY/H2.QR (antibody, V domains shown, IgG) VH: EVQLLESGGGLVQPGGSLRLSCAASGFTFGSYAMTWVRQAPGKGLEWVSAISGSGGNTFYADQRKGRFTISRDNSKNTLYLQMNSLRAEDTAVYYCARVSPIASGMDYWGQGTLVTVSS VL: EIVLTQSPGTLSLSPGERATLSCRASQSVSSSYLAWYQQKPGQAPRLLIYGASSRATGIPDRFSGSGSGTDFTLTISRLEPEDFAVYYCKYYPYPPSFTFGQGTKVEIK ?
Given back: 0.34

Data origin: patent US20190241669A1
